Cited source: patent US10723765B2

// hNE/PPE selectivity lookup, one value per entry
# ASSAY TARGET: porcine pancreatic elastase (Sus scrofa)
# Construct: purchased Sigma, USA
# Sequence (P00772 27-266): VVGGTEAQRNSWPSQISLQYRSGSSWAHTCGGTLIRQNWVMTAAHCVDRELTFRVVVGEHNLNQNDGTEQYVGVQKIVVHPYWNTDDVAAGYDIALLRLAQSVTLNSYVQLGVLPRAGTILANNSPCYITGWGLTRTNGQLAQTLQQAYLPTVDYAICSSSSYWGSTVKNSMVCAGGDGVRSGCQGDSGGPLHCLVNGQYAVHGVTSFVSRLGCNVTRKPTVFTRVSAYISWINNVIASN
# EXPERIMENTAL PROTOCOL: Inhibition of porcine pancreatic elastase (MeOSuc-AAA-pNA hydrolysis)
# Assay type: biochemical
# RECORDED CONDITIONS: ratio of PPE IC50 to hNE IC50
Non-standard residues stand in square brackets, D forms with d. Residues, ends and D or L forms follow the SMILES beside them. Aad = N[C@@H](CCCC(=O)O)C(=O)O

Use these answered entries as a reference point.
[
  {
    "COMPOUND": "CC[C@H](C)[C@@H]1NC(=O)[C@H](CO)NC(=O)[C@H](C)NC(=O)[C@H]([C@@H](C)O)NC(=O)[C@H](CCC(=O)O)NC(=O)[C@H](CCCNC(=N)N)NC(=O)[C@@H]2CCCN2C(=O)[C@H]2CCCN2C(=O)[C@H]([C@@H](C)O)NC(=O)[C@H](CCCCN)NC(=O)[C@H](Cc2ccc(O)cc2)NC(=O)[C@@H]2CCCN2C(=O)[C@@H]2CCCN2C1=O [Example 13] (cyclo(RETASIPPYKT[dP]P))",
    "hNE/PPE selectivity": ">3268"
  },
  {
    "COMPOUND": "CC[C@H](C)[C@@H]1NC(=O)[C@H](CO)NC(=O)[C@H](C)NC(=O)[C@H]([C@@H](C)O)NC(=O)[C@H](CCC(=O)O)NC(=O)[C@H](CCCNC(=N)N)NC(=O)[C@@H]2CCCN2C(=O)[C@H]2CCCN2C(=O)[C@H]([C@@H](C)O)NC(=O)[C@H](CCCCN)NC(=O)[C@H](CCC(N)=O)NC(=O)[C@@H]2CCCN2C(=O)[C@@H]2CCCN2C1=O [Example 11] (cyclo(RETASIPPQKT[dP]P))",
    "hNE/PPE selectivity": ">8000"
  }
]

# input for lookup
Item CC[C@H](C)[C@@H]1NC(=O)[C@H](CO)NC(=O)[C@H](C)NC(=O)[C@H]([C@@H](C)O)NC(=O)[C@H](CCC(=O)O)NC(=O)[C@H](CCCNC(=N)N)NC(=O)[C@@H]2CCCN2C(=O)[C@H]2CCCN2C(=O)[C@H](CCCC(N)=O)NC(=O)[C@H](CCCCN)NC(=O)[C@H](Cc2ccc(O)cc2)NC(=O)[C@@H]2CCCN2C(=O)[C@@H]2CCCN2C1=O [Example 12] (cyclo(RETASIPPYK[Aad](NH2)[dP]P)) was tested on porcine pancreatic elastase (Sus scrofa); the reported hNE/PPE selectivity is >10000
